study_target: T1, Rhesus D antigen (human, UniProt Q02161 2-417)
T1 construct: whole, on cells; Presented on RhD-positive erythrocytes in all assays; also called RhD; RhD antigen
T1 sequence (looked up): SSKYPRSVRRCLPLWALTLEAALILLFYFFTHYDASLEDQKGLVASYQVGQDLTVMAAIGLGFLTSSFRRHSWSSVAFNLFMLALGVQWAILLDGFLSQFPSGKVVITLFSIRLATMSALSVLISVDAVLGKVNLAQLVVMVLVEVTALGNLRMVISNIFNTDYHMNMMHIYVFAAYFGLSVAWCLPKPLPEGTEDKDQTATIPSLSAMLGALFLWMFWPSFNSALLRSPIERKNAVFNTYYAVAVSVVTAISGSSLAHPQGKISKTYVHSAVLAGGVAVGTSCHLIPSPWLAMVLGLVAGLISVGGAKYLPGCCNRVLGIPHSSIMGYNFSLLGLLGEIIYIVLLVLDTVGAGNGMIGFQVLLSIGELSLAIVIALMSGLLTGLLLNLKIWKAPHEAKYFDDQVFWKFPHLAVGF
assay_explanation: agglutination assay, Fab on RhD(+)/RhD(-) RBC mix
result_type: binding result

binder="RhD197.127A08 (Fab, V domains shown, Tested as Fab (periplasmic extract); lambda clone) VH: QVQLVESGGGVVQPGRSLRLSCAASGFTFSNYGMHWVRQAPGKGLEWVAVIWFDGSNRDYADSVKGRFTISRDNSKKTLYLQMNSLRAEDTAVYYCATELARGRLRALEYWGQGTLVTVSS VL: QTVVTQEPSLTVSPGGTVTLTCASSTGAVTTGYYPNWFQQKPGQAPRALIYSTSKKHSWTPARFSGSLLGGKAALTLSGVQPEDEAEYYCLLFYGGAQLGVFGGGTKLTVLG" result_type="binding result" result=binds
binder="RhD192.119G06 (Fab, V domains shown, Tested as Fab (periplasmic extract)) VH: QVQLVESGGGLVKPGGSLRLSCAASGFTFSSYAMNWVRQAPGKGLEWVSSISGTSSYIYYADSVKGRFTIFRDNAKSSVYLQMNSLRVEDTAVYYCARDRWWGMVRRVFPTYPFDYWGQGTLVTVSS VL: DIQLTQSPSSVSASVGDRVTITCRASQGINNLLAWYQQKPGKAPKLLIYAASNLQSGVPSRFSGSGSGTDFTLTINSLQPEDFATYYCQQANSFPLTFGGGTKVEIKR" result_type="binding result" result=binds
binder="RhD158.119B06 (Fab, V domains shown, Tested as Fab (periplasmic extract)) VH: EVQLVETGGGVVQPGRSLRLSCAASGFSFSNFGFHWIRQSPGKGLEWVAVIWYDGSNRFYADSVKGRFTISRDSSKNMLFLQMDSLRAEDTAVYYCAREISMKVVIRRHYVMDVWGHGTTVTVSS VL: DIQMTQSPSPLSASVGDRVSITCRASRGISNSLAWYQQKPGKVPKLLIYAASTLQSGVPSRFSGGGSGTDFTLTISSLQPEDVATYYCHTYNSAPFAFGPGTKVDIKR" result_type="binding result" result=binds
